Please go through the items and note down their IC50.
- study-target: UniProt Q92993
- measurement-notes: KAT-5 biochemical inhibition assay (SAMDI mass spectrometry)

// known answers, use as guide
- compound: "Cc1cc(-c2cn(C)cn2)cc(C(=O)NNS(=O)(=O)CC2CCCNC2)c1F (centres unmarked)"
  IC50: "> 100 µM"
- compound: "Cn1cnc(-c2cc(Cl)c(F)c(C(=O)NNS(=O)(=O)C[C@H]3CC[C@H](NS(C)(=O)=O)CC3)c2)c1"
  IC50: "< 10 µM"
- compound: "CC(=O)Nc1cccc(S(=O)(=O)NNC(=O)c2cc(-c3cn(C)cn3)cc(Cl)c2F)c1"
  IC50: "< 10 µM"
- compound: "COC1CCC(CS(=O)(=O)NNC(=O)c2cc(-c3cn(C)cn3)cc(Cl)c2F)CC1 (centres unmarked)"
  IC50: "< 10 µM"
- compound: "CCCn1cc(-c2cc(C)c(F)c(C(=O)NNS(=O)(=O)C3CCCCC3)c2)cn1"
  IC50: "50 to 100 µM"

List the reported IC50 of each compound below.
1. CC(C)S(=O)(=O)N1CCC(CS(=O)(=O)NNC(=O)c2cc(-c3cn(C)cn3)cc(Cl)c2F)C1 (centres unmarked)
2. O=C(NNS(=O)(=O)CC1CCCCC1)c1cc(-n2ccnc2)cc(Cl)c1F
3. CCO[C@@H]1CCC[C@H](CS(=O)(=O)NNC(=O)c2cc(-c3cn(C)cn3)cc(Cl)c2F)C1

1: < 10 µM; 2: 50 to 100 µM; 3: < 10 µM

----------
- study-target: UniProtKB Q92993
- measurement-notes: KAT-5 biochemical inhibition assay (SAMDI mass spectrometry)
observed-property: IC50

List the reported IC50 of each molecule below.
1. CNC(=O)N1CC(CS(=O)(=O)NNC(=O)c2cc(-c3cn(C)cn3)cc(Cl)c2F)C1
2. O=C(NNS(=O)(=O)CC1CCOCC1)c1cc(-n2ccnn2)cc(Cl)c1F
3. Cn1cnc(-c2cc(Cl)c(F)c(C(=O)NNS(=O)(=O)CC3CCCC(NC(N)=O)C3)c2)c1 (stereo not drawn)

["10 to 50 µM", "10 to 50 µM", "< 10 µM"]

----------
Please go through the items and note down their IC50.
- study-target: KAT-5 (Homo sapiens (Human))
- Sequence (Q92993 other isoform, or with tags, fused parts or gaps): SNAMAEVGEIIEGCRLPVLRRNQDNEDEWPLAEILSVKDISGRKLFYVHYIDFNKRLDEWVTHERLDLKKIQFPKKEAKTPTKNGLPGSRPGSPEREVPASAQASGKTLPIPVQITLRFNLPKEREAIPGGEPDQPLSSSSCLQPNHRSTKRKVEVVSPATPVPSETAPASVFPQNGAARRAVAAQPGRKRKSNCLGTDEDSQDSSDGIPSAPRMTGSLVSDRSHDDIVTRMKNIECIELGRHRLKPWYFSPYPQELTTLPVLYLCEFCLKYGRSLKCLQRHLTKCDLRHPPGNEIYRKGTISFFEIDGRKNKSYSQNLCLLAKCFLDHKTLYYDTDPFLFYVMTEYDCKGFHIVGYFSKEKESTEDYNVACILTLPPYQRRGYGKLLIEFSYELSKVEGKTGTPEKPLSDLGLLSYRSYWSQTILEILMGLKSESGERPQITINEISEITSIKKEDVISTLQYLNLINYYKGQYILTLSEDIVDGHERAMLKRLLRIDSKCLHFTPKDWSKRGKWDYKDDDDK
- measurement-notes: KAT-5 biochemical inhibition assay (SAMDI mass spectrometry)

- molecule: "Cn1cnc(-c2cc(Cl)c(F)c(C(=O)NNS(=O)(=O)CC3CN(S(C)(=O)=O)C3)c2)c1"
  study-target: "KAT-5 (Homo sapiens (Human))"
  IC50: "10 to 50 µM"

List the reported IC50 of each molecule below.
1. Cn1cnc(-c2cc(Cl)c(F)c(C(=O)NNS(=O)(=O)C[C@H]3CC[C@H](N(C)C(=O)OC(C)(C)C)CC3)c2)c1
2. CC(=O)N[C@H]1CC[C@H](CS(=O)(=O)NNC(=O)c2cc(-c3cn(C)cn3)cc(Cl)c2F)CC1
3. COCCn1cnc(-c2cc(C)c(F)c(C(=O)NNS(=O)(=O)CC3CCOCC3)c2)c1
4. O=C(NNS(=O)(=O)CC1CCOCC1)c1cc(-n2ccnc2)cc(Cl)c1F
5. CCC(=O)N[C@H]1CC[C@H](CS(=O)(=O)NNC(=O)c2cc(-c3cn(C)cn3)cc(Cl)c2F)CC1
6. Cn1cnc(-c2cc(Cl)c(F)c(C(=O)NNS(=O)(=O)CC3CCCC(N)C3)c2)c1 (stereo not drawn)

1. < 10 µM
2. < 10 µM
3. 10 to 50 µM
4. < 10 µM
5. < 10 µM
6. 10 to 50 µM

----------
- study-target: KAT-8 (Homo sapiens (Human))
- Sequence (Q9H7Z6 other isoform, or with tags, fused parts or gaps): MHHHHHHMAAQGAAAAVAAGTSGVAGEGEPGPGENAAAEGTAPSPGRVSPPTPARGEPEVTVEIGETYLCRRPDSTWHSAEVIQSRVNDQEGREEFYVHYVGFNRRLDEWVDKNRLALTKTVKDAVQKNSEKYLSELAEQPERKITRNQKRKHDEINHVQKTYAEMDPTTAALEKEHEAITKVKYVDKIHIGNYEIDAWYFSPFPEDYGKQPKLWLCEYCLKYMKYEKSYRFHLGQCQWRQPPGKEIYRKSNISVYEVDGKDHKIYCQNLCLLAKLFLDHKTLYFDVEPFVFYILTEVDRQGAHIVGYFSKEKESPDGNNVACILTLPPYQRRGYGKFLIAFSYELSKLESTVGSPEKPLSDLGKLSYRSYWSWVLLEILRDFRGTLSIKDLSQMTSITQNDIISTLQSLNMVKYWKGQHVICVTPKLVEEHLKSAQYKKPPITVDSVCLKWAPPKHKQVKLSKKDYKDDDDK
- measurement-notes: KAT-8 biochemical inhibition assay (SAMDI mass spectrometry)
pIC50: −log10 of the molar value.
Please go through the items and note down their pIC50.

// known answers, use as guide
- compound: "CNC(=S)N1CC[C@@H](CS(=O)(=O)NNC(=O)c2cc(-c3cn(C)cn3)cc(Cl)c2F)C1"
  study-target: "KAT-8 (Homo sapiens (Human))"
  pIC50: "4.30 to 5.00"
- compound: "Cn1cnc(-c2cc(Cl)c(F)c(C(=O)NNS(=O)(=O)C[C@H]3CC[C@H]4CC[C@@H]3N4)c2)c1"
  study-target: "KAT-8 (Homo sapiens (Human))"
  pIC50: "4.30 to 5.00"
- compound: "Cn1cnc(-c2cc(Cl)c(F)c(C(=O)NNS(=O)(=O)CC3CCCC(NC(=O)Cc4ccncc4)C3)c2)c1 (stereo not drawn)"
  study-target: "KAT-8 (Homo sapiens (Human))"
  pIC50: "4.30 to 5.00"

List the reported pIC50 of each compound below.
1. Cn1cnc(-c2cc(Cl)c(F)c(C(=O)NNS(=O)(=O)CC3CCCC(NC(N)=O)C3)c2)c1 (stereo not drawn)
2. CN1CCN([C@H]2C[C@@H](CS(=O)(=O)NNC(=O)c3cc(-c4cn(C)cn4)cc(Cl)c3F)C2)C1=O
3. O=C(NNS(=O)(=O)CC1CCCCC1)c1cc(-c2cn(Cc3ncco3)cn2)cc(Cl)c1F
4. COc1ccc(CN(C)C(=O)NC2CCC(CS(=O)(=O)NNC(=O)c3cc(-c4cn(C)cn4)cc(Cl)c3F)C2)cc1 (stereo not drawn)
5. Cc1cnn(-c2cc(Cl)c(F)c(C(=O)NNS(=O)(=O)CC3CCOCC3)c2)c1

["4.30 to 5.00", "4.30 to 5.00", "4.30 to 5.00", "4.30 to 5.00", "< 4.00"]

List the reported pIC50 of each compound below.
1. Cn1cnc(-c2cc(Cl)c(F)c(C(=O)NNS(=O)(=O)CC3CCCC(NC(=O)Cc4ccccc4)C3)c2)c1 (stereo not drawn)
2. Cn1cnc(-c2cc(Cl)c(F)c(C(=O)NNS(=O)(=O)CC3CCCN(C(N)=O)C3)c2)c1 (stereo not drawn)
3. COCCc1nc(-c2cc(Cl)c(F)c(C(=O)NNS(=O)(=O)C3CCOCC3)c2)cn1C
4. Cc1cc(-c2cncn2C)cc(C(=O)NNS(=O)(=O)C2CCCCC2)c1F
5. Cn1cnc(-c2cc(Cl)c(F)c(C(=O)NNS(=O)(=O)C3CCOC3)c2)c1 (stereo not drawn)
6. CCC(=O)N(C)C1CCC(CS(=O)(=O)NNC(=O)c2cc(-c3cn(C)cn3)cc(Cl)c2F)CC1 (stereo not drawn)

["4.30 to 5.00", "4.30 to 5.00", "4.30 to 5.00", "< 4.00", "< 4.00", "4.30 to 5.00"]

List the reported pIC50 of each compound below.
1. Cn1cnc(-c2cc(Cl)c(F)c(C(=O)NNS(=O)(=O)CC3(F)CCCCC3)c2)c1
2. CNC(=O)N1CCCC(CS(=O)(=O)NNC(=O)c2cc(-c3cn(C)cn3)cc(Cl)c2F)C1 (stereo not drawn)
3. O=C(NNS(=O)(=O)CC1CCOCC1)c1cc(-n2cccn2)cc(Cl)c1F
4. Cn1cnc(-c2cc(Cl)c(F)c(C(=O)NNS(=O)(=O)c3ccc(OCc4ccccc4)nc3)c2)c1

1: 4.30 to 5.00; 2: 4.30 to 5.00; 3: < 4.00; 4: 4.30 to 5.00

----------
- study-target: KAT-6A (Homo sapiens (Human))
- Sequence (Q92794 other isoform, or with tags, fused parts or gaps): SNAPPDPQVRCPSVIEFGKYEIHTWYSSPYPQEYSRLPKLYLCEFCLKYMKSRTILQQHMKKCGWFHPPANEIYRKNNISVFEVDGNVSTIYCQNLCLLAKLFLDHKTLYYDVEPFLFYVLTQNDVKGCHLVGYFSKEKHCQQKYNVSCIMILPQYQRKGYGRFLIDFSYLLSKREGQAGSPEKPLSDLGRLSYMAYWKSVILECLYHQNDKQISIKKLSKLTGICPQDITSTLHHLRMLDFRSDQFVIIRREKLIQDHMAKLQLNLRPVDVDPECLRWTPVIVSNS
- measurement-notes: KAT-6A biochemical inhibition assay (SAMDI mass spectrometry)
observed-property: IC50

// known answers, use as guide
- compound: "Cn1cnc(-c2cc(Cl)c(F)c(C(=O)NNS(=O)(=O)C[C@H]3CC[C@H](NC(=O)OC(C)(C)C)CC3)c2)c1"
  study-target: "KAT-6A (Homo sapiens (Human))"
  IC50: "< 10 µM"
- compound: "CCOc1ccc(S(=O)(=O)NNC(=O)c2cc(-c3cn(C)cn3)cc(Cl)c2F)cc1"
  study-target: "KAT-6A (Homo sapiens (Human))"
  IC50: "< 10 µM"
- compound: "CC(C)NC(=O)N1CCCC(CS(=O)(=O)NNC(=O)c2cc(-c3cn(C)cn3)cc(Cl)c2F)C1 (stereo not shown)"
  study-target: "KAT-6A (Homo sapiens (Human))"
  IC50: "< 10 µM"
- compound: "O=C(NNS(=O)(=O)CC1CCCCC1)c1cc(-n2ccnn2)cc(Cl)c1F"
  study-target: "KAT-6A (Homo sapiens (Human))"
  IC50: "< 10 µM"
- compound: "CC(=O)Nc1ccc(S(=O)(=O)NNC(=O)c2cc(-c3cn(C)cn3)cc(Cl)c2F)cc1"
  study-target: "KAT-6A (Homo sapiens (Human))"
  IC50: "10 to 50 µM"
- compound: "CCO[C@H]1CCC[C@H](CS(=O)(=O)NNC(=O)c2cc(-c3cn(C)cn3)cc(Cl)c2F)C1"
  study-target: "KAT-6A (Homo sapiens (Human))"
  IC50: "< 10 µM"
- compound: "CCCS(=O)(=O)N1CCCC(CS(=O)(=O)NNC(=O)c2cc(-c3cn(C)cn3)cc(Cl)c2F)C1 (stereo not shown)"
  study-target: "KAT-6A (Homo sapiens (Human))"
  IC50: "< 10 µM"
- compound: "CN(C(=O)OC(C)(C)C)c1ccc(S(=O)(=O)NNC(=O)c2cc(-c3cn(C)cn3)cc(Cl)c2F)cc1"
  study-target: "KAT-6A (Homo sapiens (Human))"
  IC50: "10 to 50 µM"

List the reported IC50 of each compound below.
1. Cn1cnc(-c2cc(Cl)c(F)c(C(=O)NNS(=O)(=O)c3cccc(N)n3)c2)c1
2. Cn1cnc(-c2cc(Cl)c(F)c(C(=O)NNS(=O)(=O)CC3CCC4CCC3N4C(=O)OC(C)(C)C)c2)c1 (stereo not shown)

1: < 10 µM; 2: 10 to 50 µM

Taken from patent US11685732B2.
